# experimentalDetails: small-molecule binders of probe aInhba, primary screen, biochemical, small-molecule microarray, 635/667 nm fluorescence (AID 1148);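 also: score merges 667nm spot fluorescence with signal-to-noise for antibody binding to printed compounds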
# experimentalContext: higher = more signal
For each of the compounds below, state its composite z-score.
Give your answer as a number; write no unit.

Documented composite z-score of "COCCOC(=O)N1C(=O)[C@@]2(c3cc(C#CC4=CCCCC4)ccc31)[C@H](c1ccc(O)cc1)N1[C@H](c3ccccc3)[C@H](c3ccccc3)OC(=O)[C@H]1[C@@H]2C(N)=O" : -0.598

The recorded composite z-score for entry "C=CCOC(=O)[C@@H]1[C@H]2C(=O)O[C@H](c3ccccc3)[C@H](c3ccccc3)N2[C@H](c2ccc(OCCOC(=O)[C@@H]3C[C@@H]4C(=O)N[C@@H](CCCC[N+](C)(C)C)C(=O)N4[C@@H]3c3cccc(OCCO)c3)cc2)[C@@]12C(=O)Nc1ccc(I)cc12" equals -0.122

----------
Can you tell me z-score for the items I'm about to list?
# systemName: Luciferin 4-monooxygenase (Photinus pyralis) (UniProt P08659)
# Sequence (P08659 whole entry, looked up): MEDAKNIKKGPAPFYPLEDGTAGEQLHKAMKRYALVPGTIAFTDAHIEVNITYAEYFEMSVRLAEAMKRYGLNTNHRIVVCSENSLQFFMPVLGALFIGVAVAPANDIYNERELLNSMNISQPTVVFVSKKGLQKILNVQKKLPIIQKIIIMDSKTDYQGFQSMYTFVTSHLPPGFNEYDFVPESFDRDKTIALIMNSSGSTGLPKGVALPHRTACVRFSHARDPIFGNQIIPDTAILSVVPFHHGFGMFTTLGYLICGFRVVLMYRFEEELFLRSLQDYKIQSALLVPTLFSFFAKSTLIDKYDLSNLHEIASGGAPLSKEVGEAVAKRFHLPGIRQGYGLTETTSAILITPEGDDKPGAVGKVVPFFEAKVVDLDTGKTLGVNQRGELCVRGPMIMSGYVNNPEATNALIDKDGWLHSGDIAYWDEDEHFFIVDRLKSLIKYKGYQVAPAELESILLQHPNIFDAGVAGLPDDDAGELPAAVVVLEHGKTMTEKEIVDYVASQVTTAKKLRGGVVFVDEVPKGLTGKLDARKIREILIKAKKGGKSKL
# experimentalDetails: firefly luciferase enzyme inhibitors, primary screen, biochemical, luminescence, purified enzyme, 2006 set (AID 1141);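 also: cell-free assay with purified firefly luciferase at 100 ng per well in PBS; test concentration not given here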
# experimentalContext: SteadyGlo luminescence, 30 min, higher = more signal, called active from +8 up or from −8 down
Form rule: numeric answer, no unit written next to it.

Record for "COC(=O)[C@@]1(Cc2ccc(F)cc2)[C@@H]2[C@@H](CC(=O)[C@H]2CC(=O)C(=O)N(C)C)CN1C(=O)c1ccccc1" under target or system Luciferin 4-monooxygenase (Photinus pyralis) (UniProt P08659): z-score reported as 1.28

The compound "COC(=O)[C@@]1(Cc2ccc(OC)cc2)[C@H]2c3cc(C(=O)N4CCCC4)n(Cc4ccsc4Br)c3C[C@H]2CN1C(=O)c1ccccc1" , tested on Luciferin 4-monooxygenase (Photinus pyralis) (UniProt P08659), showed z-score of -0.777

Record "CN(C)C(=O)[C@]1(Cc2ccccc2N=[N+]=[N-])N=C(c2ccc(OCCCO)cc2)O[C@@H]1c1ccccc1" / Luciferin 4-monooxygenase (Photinus pyralis) (UniProt P08659), z-score recorded as -1.08

Reported Luciferin 4-monooxygenase (Photinus pyralis) (UniProt P08659) z-score for item "CCOC(=O)C[C@H]1[C@H](OC(=O)Cc2ccc3c(c2)OCO3)[C@@H](NC(=O)c2ccc(-c3ccccc3)cc2)c2cc(OCCCO)ccc2N1C(=O)Cc1ccc(OC)cc1" was -1.11

Form field, z-score with Luciferin 4-monooxygenase (Photinus pyralis) (UniProt P08659), item "C=CCOC(=O)[C@@H]1[C@H]2C(=O)O[C@H](c3ccccc3)[C@H](c3ccccc3)N2[C@H](c2ccc(OCCOC(=O)[C@@H]3C[C@@H]4C(=O)N[C@@H](CCCCN(C)C)C(=O)N4[C@@H]3c3ccc(O)cc3)cc2)[C@@]12C(=O)Nc1ccc(I)cc12" : -2.62

z-score on Luciferin 4-monooxygenase (Photinus pyralis) (UniProt P08659) for "COc1cc2c(cc1OC)CN(C(=O)[C@H]1[C@@H]3C(=O)O[C@@H](c4ccccc4)[C@@H](c4ccccc4)N3[C@@H](c3ccc(O)cc3)[C@]13C(=O)Nc1ccc(C#CC4=CCCCC4)cc13)CC2" is -1.1

Form field z-score for item "COc1ccc(C(=O)Nc2ccc(CN3C(=O)[C@@]4(O[C@@H](CCn5cc([C@H](O)c6ccccc6)nn5)[C@H]([Si](C)(C)c5ccc(OC)cc5)[C@H]4C)c4ccccc43)cc2)cc1" on Luciferin 4-monooxygenase (Photinus pyralis) (UniProt P08659): -0.753

Luciferin 4-monooxygenase (Photinus pyralis) (UniProt P08659) z-score of CCOC(=O)C1=CCC(c2ccccc2)N(S(=O)(=O)CC[Si](C)(C)C)C1 (centres undefined) is 1.2

Entry "CCCCCCC#C[Si](O[C@H](c1ccccc1)c1cn([C@H](CO)Cc2ccccc2)nn1)(C(C)C)C(C)C" under Luciferin 4-monooxygenase (Photinus pyralis) (UniProt P08659) had z-score of 0.751

Summary line: "C[C@@]1([C@@H](NC(=O)c2ccccc2)c2ccc(-c3ccccc3)cc2)C[C@H]1C1CCCCC1" , Luciferin 4-monooxygenase (Photinus pyralis) (UniProt P08659), reported z-score = 1.32

For the compound "C=C(CCCC)C(=O)CC[C@H](OC(=O)c1cccnc1)c1ccccc1OCCO" , the measured z-score on Luciferin 4-monooxygenase (Photinus pyralis) (UniProt P08659) was -0.288

The reported Luciferin 4-monooxygenase (Photinus pyralis) (UniProt P08659) z-score of CS(=O)(=O)CCOC(=O)C1=CC(CCCO)=CC(c2ccc(CN3CCCC3)cc2)N(Cc2cc3c(cc2Br)OCO3)C=C1C(=O)OCCS(C)(=O)=O (centres undefined) is -1.78

Observed z-score on Luciferin 4-monooxygenase (Photinus pyralis) (UniProt P08659), entry "COCCOC(=O)N1C(=O)[C@@]2(c3cc(C#Cc4ccc(OC)cc4)ccc31)[C@H](C(=O)N1CCCCCCC1)[C@H]1C(=O)O[C@H](c3ccccc3)[C@H](c3ccccc3)N1[C@@H]2c1ccc(OCCO)cc1" , equals -2.56

The measured z-score that "COc1ccc([C@H]2OC[C@@H]3CC4(CC=CC4)C(=O)N32)cc1" showed for Luciferin 4-monooxygenase (Photinus pyralis) (UniProt P08659) is -0.573

----------
# experimentalDetails: small-molecule microarray binders of probe aCHRDL2, primary screen, biochemical, biotinylated probe, 635/667 nm fluorescence (AID 1100)
# experimentalContext: higher = more signal
Kindly state composite z-score for each of the entries shown.

The measured composite z-score associated with O=C1C2C=CC(C(O)c3ccc(F)cc3)N(Nc3ccccc3F)C2C(=O)N1c1ccccc1 (configuration not stated) reads 0.996

Kindly note the recorded composite z-score for "CC[C@@H]1C=C(C(=O)O)[C@H](c2ccco2)N1S(=O)(=O)c1ccc(C)cc1" , which is 0.333

The recorded composite z-score for N#Cc1ccc(NN2C(C(O)c3c(F)cccc3Cl)C=CC3C(=O)N(c4ccccc4)C(=O)C32)cc1 (configuration not stated) is 1.19

Summary for this compound, "COc1cc2c(cc1OC)CN(C(=O)[C@H]1[C@@H]3C(=O)O[C@@H](c4ccccc4)[C@@H](c4ccccc4)N3[C@@H](c3ccc(O)cc3)[C@]13C(=O)Nc1ccc(C#CC4=CCCCC4)cc13)CC2" : composite z-score is 0.785

# composite z-score of "O=C(NCC(F)(F)F)[C@@H]1c2ccccc2C(=O)N(C2CCCCC2)[C@H]1c1ccc(CO)cc1" = 0.528

Query CN1C(=O)C2C=CC(C(O)Cc3ccccc3)N(Nc3ccccc3)C2C1=O (configuration not stated) yields composite z-score of 0.898

The recorded composite z-score for entry "COCCOC(=O)N1C(=O)[C@@]2(c3cc(C#CC4=CCCCC4)ccc31)[C@H](c1ccc(O)cc1)N1[C@H](c3ccccc3)[C@H](c3ccccc3)OC(=O)[C@H]1[C@@H]2C(N)=O" equals -0.624

----------
# experimentalDetails: HepG2 cell viability effects, profiling panel, calcein-AM fluorescence, 48 h, basal (AID 1164); also: test concentration not given here
# experimentalContext: higher = more signal
Note to self: class = bucket of z-score, per bottom range: < -0.8; center range: ≥ -0.8 and < 0.1; top range: ≥ 0.1

Exercise: Returns: class label. Input: "COc1cc2c(cc1OC)CN(C(=O)[C@H]1[C@@H]3C(=O)O[C@@H](c4ccccc4)[C@@H](c4ccccc4)N3[C@@H](c3ccc(O)cc3)[C@]13C(=O)Nc1ccc(C#CCNC(N)=O)cc13)CC2"
Solution: top range

Exercise: Which bin should I file "Cc1ccc(S[C@]2(C(=O)NCCN3CCOCC3)CC(=O)N(Cc3ccccc3Cl)[C@@H]2c2ccc(CO)cc2)cc1" under?
Solution: center range

Exercise: Form: Item = O=C1NC(=O)C2C1C=CC(C(O)c1ccccc1)N2Nc1ccc(Cl)cc1Cl (configuration not stated) ; Class = ?
Solution: bottom range

Exercise: Hi, small favor: classify "COc1ccc([Si](C)(C)[C@H]2[C@H](CCn3cc([C@H](O)c4ccccc4)nn3)O[C@@]3(C(=O)N(Cc4cccc(N5CCOC5=O)c4)c4ccccc43)[C@@H]2C)cc1" by its z-score when you get a moment.
Solution: top range

Exercise: Determine which band this compound sits in: "CC(C)(C)OC(=O)CC[C@]12N=C(c3ccc(OCCCO)cc3)O[C@H]1c1ccccc1N(CCS(=O)(=O)c1ccccc1)C2=O"
Solution: top range

Exercise: Just checking, what class would you give "C=CC[C@@]1(C(N)=O)N=C(c2ccc(OCCCO)cc2)O[C@@H]1c1ccccc1CN=[N+]=[N-]" here?
Solution: center range

Exercise: Lab note: which band did CN1C(=O)C2C=CC(C(O)c3cccs3)N(Nc3ccccc3)C2C1=O (configuration not stated) land in?
Solution: center range

Exercise: Band for the recorded z-score of "COc1ccc(C(=O)Nc2ccc(CN3C(=O)[C@@]4(O[C@@H](CC(=O)N5CCC[C@H]5CO)[C@H]([Si](C)(C)c5ccc(OC)cc5)[C@H]4C)c4ccccc43)cc2)cc1" ?
Solution: top range

Exercise: Which bin, given its z-score, does O=C1OCC=C[C@H]2OC34C=CCN(c5ccc6ccccc6c5)C(=O)[C@H]3N(CCCCCCO)C(=O)[C@@H]4[C@@H]12 (some centres not stated) occupy?
Solution: top range

Exercise: Form field 'band' for CN1C(=O)C2C=CC(C(O)C3CCCCC3)N(Nc3ccc([N+](=O)[O-])cc3[N+](=O)[O-])C2C1=O (configuration not stated)
Solution: bottom range

Exercise: Could you tell me which band CC1CC/C=C\[C@H]2OC34C=CCN(Cn5nnc6ccccc65)C(=O)[C@H]3N(C(CO)C(C)C)C(=O)[C@@H]4C2C(=O)O1 (some centres not stated) belongs to?
Solution: center range

Exercise: Which bin, given its z-score, does "C=CCNC(=O)[C@H]1[C@@H]2C(=O)O[C@@H](c3ccccc3)[C@@H](c3ccccc3)N2[C@@H](c2ccc(OCCO)cc2)[C@]12C(=O)Nc1ccc(C#CC3=CCCCC3)cc12" occupy?
Solution: bottom range

Exercise: Lab note: which band did COc1ccc(C(O)C2C=CC3C(=O)N(C)C(=O)C3N2N2CCCCC2)c2ccccc12 (configuration not stated) land in?
Solution: center range

Exercise: Which category fits this record: "O=C1O[C@H](c2ccccc2)[C@H](c2ccccc2)N2[C@H]1[C@@H](C(=O)O)[C@]1(C(=O)Nc3ccc(C#CC4=CCCCC4)cc31)[C@H]2c1ccccc1OCCO"
Solution: bottom range

Exercise: Which of the defined bands does the recorded z-score of "COc1ccc([Si](C)(C)[C@H]2[C@H](CCO)O[C@@]3(C(=O)N(Cc4ccc(N5C(=O)COc6ccccc65)cc4)c4ccccc43)[C@@H]2C)cc1" sit within?
Solution: bottom range

Exercise: Bin this entry: "C=CCOC(=O)[C@H]1[C@@H]2C(=O)O[C@@H](c3ccccc3)[C@@H](c3ccccc3)N2[C@@H](c2ccc(OCCOC(=O)[C@@H]3C[C@@H]4C(=O)N[C@@H](CCCC[N+](C)(C)C)C(=O)N4[C@@H]3c3ccc(O)cc3)cc2)[C@]12C(=O)Nc1ccccc12"
Solution: center range

Exercise: Determine which band this compound sits in: CC1CC/C=C\[C@H]2OC34C=CCN(c5ccc(Cl)cc5)C(=O)[C@H]3N(CCO)C(=O)[C@]4(C)C2C(=O)O1 (some centres not stated)
Solution: top range

Exercise: State the band of "CN1C(=O)[C@]2(Cc3ccccc3)N=C(c3ccc(OCCCO)cc3)O[C@@H]2c2ccccc21"
Solution: bottom range

Exercise: Any idea which band "[N-]=[N+]=NCc1ccccc1C[C@]1(C(=O)O)N=C(c2ccc(OCCCO)cc2)O[C@H]1c1ccccc1N=[N+]=[N-]" is in?
Solution: bottom range

Exercise: Category of "CC(C)N1C(=O)[C@@]2(Cc3ccccc31)c1ccccc1C(=O)N(C1CCCCC1)[C@H]2c1ccc(CO)cc1" , please.
Solution: center range

Exercise: Returns: class label. Input: "O=C1O[C@H](c2ccccc2)[C@H](c2ccccc2)N2[C@H]1[C@@H](C(=O)NC[C@H](O)c1ccccc1)[C@]1(C(=O)Nc3ccccc31)[C@H]2c1ccc(OCCO)cc1"
Solution: bottom range

Exercise: Hey, which category is "CCOC(=O)C[C@H]1[C@H](OC(=O)Cc2ccc3c(c2)OCO3)[C@@H](NC(=O)c2ccc(-c3ccccc3)cc2)c2cc(OCCCO)ccc2N1C(=O)c1ccc2ccccc2n1" in, do you know?
Solution: top range

Exercise: Each compound maps to one class by z-score. Which class for "C=CCNC(=O)[C@@H]1[C@H]2C(=O)O[C@H](c3ccccc3)[C@H](c3ccccc3)N2[C@H](c2ccc(OCCO)cc2)[C@@]12C(=O)Nc1ccc(C#CCCO)cc12" ?
Solution: top range

Exercise: Band of "C#CCNC(=O)[C@H](Cc1ccccc1)NC(=O)CCC(=O)O" ?
Solution: center range

Exercise: Bin? "COC(=O)[C@@]1(Cc2ccc(OC)cc2)[C@H]2c3cc(C(=O)N4CCCC4)n(Cc4ccsc4Br)c3C[C@H]2CN1C(=O)c1ccccc1"
Solution: center range

Exercise: Would you mind sorting "C[C@]1(C(=O)NC2CC2)c2ccccc2C(=O)N(Cc2cc(C(F)(F)F)cc(C(F)(F)F)c2)[C@H]1c1ccc(CO)cc1" into the appropriate category?
Solution: top range

Exercise: Hi, small favor: classify "O=C(NCc1ccc(F)cc1)[C@H]1C[C@H]2C(=O)N[C@@H](Cc3ccccc3)C(=O)N2[C@H]1c1ccc(O)cc1" by its z-score when you get a moment.
Solution: center range
